Assay: qHTS assay to identify small molecule agonists of H2AX - cell viability counter screen (AID 1224847); also: nearly all actives have a fitted effect of over 30% in size
Details: CHO-K1 viability, CellTiter-Glo luminescence, 3 h; series mostly up to 154 µM
Records with an inconclusive call do not appear. The source made the active and inactive calls. Calls follow the shape of the full dose curve.
Possible outcomes: active, inactive

molecule: O=Cc1ccc(Cl)cc1Cl
group-label: inactive

molecule: COC(=O)C(Cl)C(=O)OC
group-label: inactive

molecule: CC[C@H]1C[C@H]2[C@@H]3CCC4=CC(=O)CC[C@@H]4[C@H]3CC[C@]2(C)[C@H]1O
group-label: inactive

molecule: O=C(O)C(F)(F)C(F)(F)C(F)(F)C(F)(F)C(F)(F)C(F)(F)C(F)(F)C(F)(F)C(F)(F)F
group-label: inactive

molecule: CC(C)N(CCC(C(N)=O)(c1ccccc1)c1ccccn1)C(C)C (stereo unspecified)
group-label: inactive

molecule: CCC(Cl)CCl (stereo unspecified)
group-label: inactive

molecule: Cc1ccc(N)cc1C
group-label: inactive

molecule: OCCCBr
group-label: inactive

molecule: N#Cc1cc(I)c(O)c(I)c1
group-label: active

molecule: c1ccoc1
group-label: inactive

molecule: CC(O)(CS(=O)(=O)c1ccc(F)cc1)C(=O)Nc1ccc(C#N)c(C(F)(F)F)c1 (stereo unspecified)
group-label: active

molecule: ClC=C(Cl)Cl
group-label: inactive

molecule: CC1(C)CCC(Cc2ccc(Cl)cc2)C1(O)Cn1cncn1 (stereo unspecified)
group-label: active

molecule: CN(N=O)c1ccc([N+](=O)[O-])cc1
group-label: inactive

molecule: CC(C)(C)c1cc([N+](=O)[O-])cc([N+](=O)[O-])c1O
group-label: inactive

molecule: CC(C)(Cl)[N+](=O)[O-]
group-label: inactive

molecule: CCC(C)(NC(=O)c1cc(Cl)c(C)c(Cl)c1)C(=O)CCl (stereo unspecified)
group-label: active

molecule: O=C(C(Cl)(Cl)Cl)C(Cl)(Cl)Cl
group-label: inactive

molecule: Nc1nc(N)nc(N)n1
group-label: inactive

molecule: c1ccc(C2CC2)c(OCC2=NCCN2)c1
group-label: inactive

molecule: Cc1ccc2ccccc2c1
group-label: inactive
